Provide the recorded pIC50 for the entries that follow.
Tested on: 415267-285-R-J2-PDC complex spheroid viability
TEST SUMMARY: Anticancer human tumor 415267-285-R-J2-PDC patient-derived breast carcinoma cell line growth inhibition [POLQ]
SETUP CONDITIONS: compound alone; run of 01/19/2024
pIC50: −log10 of the molar value.

What pIC50 value was documented for this compound, Nc1ccc(C#CCN(C(=O)Cc2ncc(C(F)(F)F)cc2C(F)(F)F)c2ccc(F)cc2)nn1 ?
< 5.00

Could you do the same for Cc1cccc(N(C)C(=O)C2C(O)CCN2c2nc(C)cc(C(F)(F)F)c2C#N)c1 (configuration not stated) , please?
< 5.00

###

Test system: 415267-285-R-J2-PDC complex spheroid viability
TEST SUMMARY: Anticancer human tumor 415267-285-R-J2-PDC cell line growth inhibition [POLQ];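 also: spheroids exposed to compounds for one week before readout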;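 as to viability, T/C: luminescence used as stand-in measure of viable cells; 100% = DMSO vehicle control viability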
SETUP CONDITIONS: second compound 0.316 µM; first compound 3.16 µM; stronger effect = lower value
Note to self: use met only for viability, T/C readings below 80%; a reading exactly at 80% still gets not met.

Does the reported viability, T/C of CC1COCCN1c1cc(C2(S(C)(=N)=O)CC2)nc(-c2ccnc3[nH]ccc23)n1 (stereo not given) + Nc1ccc(C#CCN(C(=O)Cc2ncc(C(F)(F)F)cc2C(F)(F)F)c2ccc(F)cc2)nn1 stay below 80%?
met

Okay, and COc1cc(C2c3cc4c(cc3C(OC3OC5COC(C)OC5C(O)C3O)C3COC(=O)C23)OCO4)cc(OC)c1O (stereo not given) + Cc1cccc(N(C)C(=O)C2C(O)CCN2c2nc(C)cc(C(F)(F)F)c2C#N)c1 ?
met

Let us now turn to CCCS(=O)(=O)Nc1ccc(F)c(C(=O)c2c[nH]c3ncc(-c4ccc(Cl)cc4)cc23)c1F + Nc1ccc(C#CCN(C(=O)Cc2ncc(C(F)(F)F)cc2C(F)(F)F)c2ccc(F)cc2)nn1
not met

Okay, and CCCS(=O)(=O)Nc1ccc(F)c(C(=O)c2c[nH]c3ncc(-c4ccc(Cl)cc4)cc23)c1F + COC1C(OC(N)=O)C(O)C(Oc2ccc3c(O)c(NC(=O)c4ccc(O)c(CC=C(C)C)c4)c(=O)oc3c2C)OC1(C)C ?
not met

Note, next up: CNCc1ccc(-c2[nH]c3cc(F)cc4c3c2CCNC4=O)cc1 + Cc1cccc(N(C)C(=O)C2C(O)CCN2c2nc(C)cc(C(F)(F)F)c2C#N)c1
not met

Can you handle COc1cc(C2c3cc4c(cc3C(OC3OC5COC(C)OC5C(O)C3O)C3COC(=O)C23)OCO4)cc(OC)c1O (stereo not given) + COC1C(OC(N)=O)C(O)C(Oc2ccc3c(O)c(NC(=O)c4ccc(O)c(CC=C(C)C)c4)c(=O)oc3c2C)OC1(C)C next?
met

And then Nc1ccn(C2OC(CO)C(O)C2(F)F)c(=O)n1 (stereo not given) + COC1C(OC(N)=O)C(O)C(Oc2ccc3c(O)c(NC(=O)c4ccc(O)c(CC=C(C)C)c4)c(=O)oc3c2C)OC1(C)C , what is it?
met

Entry to check: CCc1cc2c(N3CCc4c(cc(Cn5ccnc5)cc4-c4cn(C)nc4C(F)(F)F)C3=O)cc(C)nc2c(OC)n1 + COC1C(OC(N)=O)C(O)C(Oc2ccc3c(O)c(NC(=O)c4ccc(O)c(CC=C(C)C)c4)c(=O)oc3c2C)OC1(C)C
not met

Input CC1COCCN1c1cc(C2(O)CC3CCC(C2)O3)c2cnn(-c3ccn[nH]3)c2n1 (stereo not given) + Nc1ccc(C#CCN(C(=O)Cc2ncc(C(F)(F)F)cc2C(F)(F)F)c2ccc(F)cc2)nn1
met

###

Tested on: 415267-285-R-J2-PDC complex spheroid viability
TEST SUMMARY: Anticancer human tumor 415267-285-R-J2-PDC cell line growth inhibition [POLQ]; active means viability on the fitted dose curve at most 10% of control; inactive means the rest;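 also: spheroids exposed to compounds for one week before readout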
SETUP CONDITIONS: second compound 0.0316 µM; first compound 1 µM
# output must be one of active, inactive

Record lookup: outcome of this test for COc1cc(C2c3cc4c(cc3C(OC3OC5COC(C)OC5C(O)C3O)C3COC(=O)C23)OCO4)cc(OC)c1O (stereo unspecified) + COC1C(OC(N)=O)C(O)C(Oc2ccc3c(O)c(NC(=O)c4ccc(O)c(CC=C(C)C)c4)c(=O)oc3c2C)OC1(C)C ?
active

Again, but for CCCS(=O)(=O)Nc1ccc(F)c(C(=O)c2c[nH]c3ncc(-c4ccc(Cl)cc4)cc23)c1F + Cc1cccc(N(C)C(=O)C2C(O)CCN2c2nc(C)cc(C(F)(F)F)c2C#N)c1
inactive

Follow-up entry: CCc1cc2c(N3CCc4c(cc(Cn5ccnc5)cc4-c4cn(C)nc4C(F)(F)F)C3=O)ccnc2c(OC)n1 + Cc1cccc(N(C)C(=O)C2C(O)CCN2c2nc(C)cc(C(F)(F)F)c2C#N)c1
inactive

Can you check O=C(c1cc(Cc2n[nH]c(=O)c3ccccc23)ccc1F)N1CCN(C(=O)C2CC2)CC1 + Nc1ccc(C#CCN(C(=O)Cc2ncc(C(F)(F)F)cc2C(F)(F)F)c2ccc(F)cc2)nn1 next?
inactive

Thanks! And COc1cccc2c1C(=O)c1c(O)c3c(c(O)c1C2=O)CC(O)(C(=O)CO)CC3OC1CC(N)C(O)C(C)O1 (stereo unspecified) + Nc1ccc(C#CCN(C(=O)Cc2ncc(C(F)(F)F)cc2C(F)(F)F)c2ccc(F)cc2)nn1 ?
active

Same thing, different compound: O=C(Nc1ccc(O)c(NS(=O)(=O)c2ccc(F)cc2)c1)c1ccc(-c2ccccc2)cc1 + COC1C(OC(N)=O)C(O)C(Oc2ccc3c(O)c(NC(=O)c4ccc(O)c(CC=C(C)C)c4)c(=O)oc3c2C)OC1(C)C
inactive

Next compound up: O=C(Nc1ccc(O)c(NS(=O)(=O)c2ccc(F)cc2)c1)c1ccc(-c2ccccc2)cc1 + Nc1ccc(C#CCN(C(=O)Cc2ncc(C(F)(F)F)cc2C(F)(F)F)c2ccc(F)cc2)nn1
inactive

Also C#Cc1c(F)ccc2cc(O)cc(-c3ncc4c(N5CC6CCC(C5)N6)nc(OCC56CCCN5CC(F)C6)nc4c3F)c12 (stereo unspecified) + Nc1ccc(C#CCN(C(=O)Cc2ncc(C(F)(F)F)cc2C(F)(F)F)c2ccc(F)cc2)nn1 ?
inactive

Now consider CCCS(=O)(=O)Nc1ccc(F)c(C(=O)c2c[nH]c3ncc(-c4ccc(Cl)cc4)cc23)c1F + COC1C(OC(N)=O)C(O)C(Oc2ccc3c(O)c(NC(=O)c4ccc(O)c(CC=C(C)C)c4)c(=O)oc3c2C)OC1(C)C .
inactive

Entry to check: CCc1cc2c(N3CCc4c(cc(Cn5ccnc5)cc4-c4cn(C)nc4C(F)(F)F)C3=O)cc(C)nc2c(OC)n1 + Cc1cccc(N(C)C(=O)C2C(O)CCN2c2nc(C)cc(C(F)(F)F)c2C#N)c1
inactive

Ok, now O=C(c1cc(Cc2n[nH]c(=O)c3ccccc23)ccc1F)N1CCN(C(=O)C2CC2)CC1 + Cc1cccc(N(C)C(=O)C2C(O)CCN2c2nc(C)cc(C(F)(F)F)c2C#N)c1
inactive

Now consider Nc1ccn(C2OC(CO)C(O)C2(F)F)c(=O)n1 (stereo unspecified) + Nc1ccc(C#CCN(C(=O)Cc2ncc(C(F)(F)F)cc2C(F)(F)F)c2ccc(F)cc2)nn1 .
active

Another compound: CCc1c2c(nc3ccc(O)cc13)-c1cc3c(c(=O)n1C2)COC(=O)[C@]3(O)CC + COC1C(OC(N)=O)C(O)C(Oc2ccc3c(O)c(NC(=O)c4ccc(O)c(CC=C(C)C)c4)c(=O)oc3c2C)OC1(C)C
active

Moving on to the next compound: CC1COCCN1c1cc(-c2ccnn2C)c2ccnc(-c3ccn[nH]3)c2n1 (stereo unspecified) + COC1C(OC(N)=O)C(O)C(Oc2ccc3c(O)c(NC(=O)c4ccc(O)c(CC=C(C)C)c4)c(=O)oc3c2C)OC1(C)C
active

What do you have for O=C(Nc1ccc(O)c(NS(=O)(=O)c2ccc(F)cc2)c1)c1ccc(-c2ccccc2)cc1 + Cc1cccc(N(C)C(=O)C2C(O)CCN2c2nc(C)cc(C(F)(F)F)c2C#N)c1 ?
inactive

Same read-out for O=c1[nH]cc(F)c(=O)[nH]1 + Cc1cccc(N(C)C(=O)C2C(O)CCN2c2nc(C)cc(C(F)(F)F)c2C#N)c1 ?
inactive

Would you mind doing CC1COCCN1c1cc(C2(O)CC3CCC(C2)O3)c2cnn(-c3ccn[nH]3)c2n1 (stereo unspecified) + Nc1ccc(C#CCN(C(=O)Cc2ncc(C(F)(F)F)cc2C(F)(F)F)c2ccc(F)cc2)nn1 as well?
active

Now this one: C=CCn1c(=O)c2cnc(Nc3ccc(N4CCN(C)CC4)cc3)nc2n1-c1cccc(C(C)(C)O)n1 + Nc1ccc(C#CCN(C(=O)Cc2ncc(C(F)(F)F)cc2C(F)(F)F)c2ccc(F)cc2)nn1
active

// repeat for O=C(c1cc(Cc2n[nH]c(=O)c3ccccc23)ccc1F)N1CCN(C(=O)C2CC2)CC1 + COC1C(OC(N)=O)C(O)C(Oc2ccc3c(O)c(NC(=O)c4ccc(O)c(CC=C(C)C)c4)c(=O)oc3c2C)OC1(C)C and report
inactive

Consider next the compound COc1cc2cc(C(=O)CCC(=O)O)sc2cc1OC + Cc1cccc(N(C)C(=O)C2C(O)CCN2c2nc(C)cc(C(F)(F)F)c2C#N)c1 in the same way.
inactive

Another: CC1COCCN1c1cc(-c2ccnn2C)c2ccnc(-c3ccn[nH]3)c2n1 (stereo unspecified) + Nc1ccc(C#CCN(C(=O)Cc2ncc(C(F)(F)F)cc2C(F)(F)F)c2ccc(F)cc2)nn1
active
